Test system: MS2 coat protein
TEST_DETAILS: apparent KD of MS2 coat protein; designed switch direction (-1 OFF switch, 1 ON switch): 1; higher = weaker reporter binding
RECORDED_CONDITIONS: input ligand: FMN 200 uM
I would appreciate it if you labelled entries true (1) when apparent KD of MS2 coat protein is 200 nM or higher, otherwise false (0).

RECORD_SEQUENCE	CLASS_NAME
GUGGCGGGUUGAGGAUAUUGGUUGCCUAUGUUUAACAUGAGGAUCACCCAUGUGGGUUGCGGUUUCGAGAAGGUAGGUUGCUGG [salish99_SSNG2_r04_046] (Eterna round: R96, puzzle: Same State NG 2)	true (1)
GCUAGAAAUAAAGCCAACAUGAGGAUCACCCAUGUAUGUUGGUAGGAUAUCGUAUGCAAAGCAUACGAGAAGGGCCAAACUAGC [Mat - Same State NG 3 - JL Mod - D21] (Eterna round: R96, puzzle: Same State NG 3)	false (0)
GGUCGGUCCUACAUGAGGAUCACCCAUGUUCCGGAAACGGCAUAGGAUAUCUGUCCGAAAAGGUCAGAGAAGGGUGAACCGACC [Fiskers NG3ss - 73] (Eterna round: R96, puzzle: Same State NG 3)	false (0)
GCGGAACCUGACAUGAGGAUCACCCAUGUUCCGGAAACGGCACAGGAUAUCUGUCCGAAAAGGUCAGAGAAGGGUGAAAACCGC [Fiskers NG3ss - 96] (Eterna round: R96, puzzle: Same State NG 3)	true (1)
GGAUGAUAGACAGGAUAUUGAUUGUAAUUUUGUCAAGAAGGGUCUUUGAUUUAAACGACCAGUUACAUGAGGAUCACCCAUGUU [JR_SSNG1_Sub030] (Eterna round: R96, puzzle: Same State NG 1)	false (0)
ACAUGAGAUGGAGGAUAUUUUGUACCUACAUGUGACAUGAGGAUCACCCAUGUGGUAAGUAUGAGAAAGAAGGCCAAGAUAUGU [Equivalence 17 - Jieux - Same State NG 2] (Eterna round: R96, puzzle: Same State NG 2)	false (0)
UAGUGCAUUAGAGGAUAUUCUUACGGAAACGUUAAGACAUGAGGAUCACCCAUGUUGUCACAUGGGAAGAAGGCUGAUGUGCUA [Omei SS(NG)2 Bv4] (Eterna round: R96, puzzle: Same State NG 2)	false (0)
UGAACCUUCACAGGAUAUCAUGCGAAAAUUGCGUGAGAAGGGUGGAUGUGGCGUUCAUAGUUGCACAUGAGGAUCACCCAUGUA [SameState NG1 #50] (Eterna round: R96, puzzle: Same State NG 1)	true (1)
GUUACAUGAGGAUCACCCAUGUAUGUGUGGGAGUAAGUGUCUUAGGAUAUCUAGUAUUUAAUUCAAGAGAAGGAAGAUUGUUGU [JMF's solution 68] (Eterna round: R96, puzzle: Same State NG 3)	false (0)
AUAAACAGGCUAGGAUAUCCGGAAACUACAGGGCACAACCCUAUAGACAUGAGGAUCACCCAUGUGGAGAAGGAGCCACAUGAA [Ceesis] (Eterna round: R96, puzzle: Same State NG 2)	false (0)
CAUCUAUACUUAGGAUAUGUAGGAUAUGCCUACAUGAGGAUCACCCAUGUUCGCAUGGCAGAAGGACAGAAGGAAGAACUACUU [pwkr ssNG2 2FMN + 1F5.5] (Eterna round: R96, puzzle: Same State NG 2)	false (0)
AUUUUUAAUGCAGGAUAUGAUUAACAUGAGGAUCACCCAUGUGGUGUUGUGAGUAAGGAGAGUGAUCAGAAGGGCAUUUUUUGU [JMF's solution 87] (Eterna round: R96, puzzle: Same State NG 2)	true (1)
UAACAGUACAAUUUAGAUCUACAUGAGGAUCACCCAUGUACUGAGGAUAUCAGCUCGUGUAGAGCUGAGAAGGCAGAAGAACUA [SSNG3/11-A4] (Eterna round: R96, puzzle: Same State NG 3)	false (0)
AAACUCGUUGAAGGAUAUCCGGCAGCUAACAAACCGUAACAUGAGGAUCACCCAUGUGUUAGAAAGGAGAAGGUCAGUGACCGG [Eternabot solution 34] (Eterna round: R96, puzzle: Same State NG 2)	false (0)
AUUAUUUAUGCAGGAUAUGAUUAACAUGAGGAUCACCCAUGUGGUGUUGUGAGUAAGGAGAGUGAUCAGAAGGGCAUUUGUUUU [JMF's solution 48] (Eterna round: R96, puzzle: Same State NG 2)	true (1)
AACAUGAGGACAUGAACAUGAGGAUCACCCAUGUAUGUUUAUAAGGAUAUAUGAGGAGGAGGAGAAUAGAAGGUAUAGGGAGGG [This also seems to work] (Eterna round: R96, puzzle: Same State NG 3)	false (0)
UAUUAGAUCCGAGGAUAUCCUUAUAAGAAACAUGAGGAUCACCCAUGUAAAGGGAAUUAUUUGUAGGAGAAGGCGGAUUUAGUU [JR_SSNG2_Sub055] (Eterna round: R96, puzzle: Same State NG 2)	false (0)
